tested-on: mushroom tyrosinase (mTYR) (Agaricus bisporus, UniProt C7FF04)
Sequence (C7FF04 1-392): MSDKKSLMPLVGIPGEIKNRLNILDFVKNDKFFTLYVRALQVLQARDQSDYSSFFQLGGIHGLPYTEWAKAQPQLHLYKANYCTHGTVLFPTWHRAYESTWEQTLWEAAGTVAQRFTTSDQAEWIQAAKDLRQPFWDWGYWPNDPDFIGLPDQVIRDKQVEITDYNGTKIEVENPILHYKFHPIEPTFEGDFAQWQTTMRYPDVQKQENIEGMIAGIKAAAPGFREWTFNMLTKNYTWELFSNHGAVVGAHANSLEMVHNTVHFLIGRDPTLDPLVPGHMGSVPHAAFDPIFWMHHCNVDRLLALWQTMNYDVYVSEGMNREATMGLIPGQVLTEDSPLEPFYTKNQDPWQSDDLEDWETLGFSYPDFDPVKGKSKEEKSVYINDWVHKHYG
test-details: Kinetics of mTYR inhibition (Lineweaver-Burk plots)
Type: biochemical
experimental-parameters: at 1 μM of 1f
outcome-measure: pKi
Value format note: pKi is -log10 of concentration (mol/L); just state the number.

// query What does the data say about its pKi? Entry: COc1ccc(/C=c2\sc3n(c2=O)CCN=3)cc1O
// result 5.48

###

tested-on: mushroom tyrosinase (mTYR) (Agaricus bisporus)
test-details: Kinetics of mTYR inhibition (Lineweaver-Burk plots)
Type: biochemical
experimental-parameters: at 0.125 μM of 1b
outcome-measure: Ki (nM)
Output spec: scalar in nM, unitless text.

// query What does the data say about its Ki? Entry: O=c1/c(=C/c2ccc(O)cc2O)sc2n1CCN=2
// result 13.3

###

tested-on: UniProt C7FF04
test-details: Kinetics of mTYR inhibition (Lineweaver-Burk plots)
Assay type: biochemical
experimental-parameters: at 4 μM of 1f
outcome-measure: pKi
Value format note: pKi is -log10 of concentration (mol/L); just state the number.

// query Form: Entry = COc1ccc(/C=c2\sc3n(c2=O)CCN=3)cc1O | System = UniProt C7FF04 | pKi = ____
// result 5.46

###

tested-on: mushroom tyrosinase (mTYR) (Agaricus bisporus)
test-details: Kinetics of mTYR inhibition (Lineweaver-Burk plots)
Assay type: biochemical
experimental-parameters: at 0.0625 μM of 1b
outcome-measure: pKi
Value format note: pKi is -log10 of concentration (mol/L); just state the number.

// query What does the data say about its pKi? Entry: O=c1/c(=C/c2ccc(O)cc2O)sc2n1CCN=2
// result 7.82

###

tested-on: mushroom tyrosinase (mTYR) (Agaricus bisporus)
test-details: Kinetics of mTYR inhibition (Lineweaver-Burk plots)
Format: biochemical
experimental-parameters: at 2 μM of 1f
outcome-measure: Ki (µM)
Output spec: scalar in µM, unitless text.

// query Form: Entry = COc1ccc(/C=c2\sc3n(c2=O)CCN=3)cc1O | System = mushroom tyrosinase (mTYR) (Agaricus bisporus) | Ki = ____
// result 5.19

###

Reported values of IC50 for individual entries
tested-on: mushroom tyrosinase (mTYR)
test-details: Mushroom tyrosinase inhibition assay
experimental-parameters: mushroom tyrosinase; L-tyrosine substrate

Completed entries (count: 2):
smiles_entry=O=c1/c(=C/c2ccc(O)cc2)sc2n1CCN=2 experimental_value="36.1 µM"
smiles_entry=COc1ccc(/C=c2\sc3n(c2=O)CCN=3)cc1O experimental_value="17.1 µM"

// query Form: Entry = COc1cc(/C=c2\sc3n(c2=O)CCN=3)cc(OC)c1OC | System = mushroom tyrosinase (mTYR) | IC50 = ____
// result > 100 µM

// query How about this molecule: CCOc1cc(/C=c2\sc3n(c2=O)CCN=3)ccc1O
// result > 100 µM

// query How about this molecule: COc1ccc(/C=c2\sc3n(c2=O)CCN=3)cc1OC
// result > 100 µM

###

tested-on: mushroom tyrosinase (mTYR) (Agaricus bisporus, UniProt C7FF04)
test-details: Kinetics of mTYR inhibition (Lineweaver-Burk plots)
Type: biochemical
experimental-parameters: at 0.25 μM of 1b
outcome-measure: Ki (µM)
Output spec: scalar in µM, unitless text.

// query What does the data say about its Ki? Entry: O=c1/c(=C/c2ccc(O)cc2O)sc2n1CCN=2
// result 0.0172

###

Reported values of pIC50 for individual entries
tested-on: mushroom tyrosinase (mTYR)
test-details: Mushroom tyrosinase inhibition assay
experimental-parameters: mushroom tyrosinase; L-tyrosine substrate
pIC50: −log10 of the molar value.

smiles_entry=COc1ccc(/C=c2\sc3n(c2=O)CCN=3)cc1 outcome_measure=pIC50 experimental_value="< 4.00"
smiles_entry=O=c1/c(=C/c2ccc(O)cc2O)sc2n1CCN=2 outcome_measure=pIC50 experimental_value=6.06

// query What does the data say about its pIC50? Entry: COc1cc(/C=c2\sc3n(c2=O)CCN=3)ccc1O
// result < 4.00

// query How about this compound: COc1cc(/C=c2\sc3n(c2=O)CCN=3)cc(OC)c1O
// result < 4.00

// query How about this compound: COc1ccc(/C=c2\sc3n(c2=O)CCN=3)c(OC)c1
// result < 4.00

// query How about this compound: O=c1/c(=C/c2ccc(O)c(O)c2)sc2n1CCN=2
// result < 4.00

src = paper PMC8861568
